- Test target: FSHR (Homo sapiens)
- Method: EC50 of cyclic AMP production in CHO FSHR cells + EC20 FSH (Assay A)
- Experimental context: cyclic AMP production in CHO FSHR cells + EC20 FSH (0.265 pM), HTRF
- Experimental: Example 24. EC50 of cyclic AMP production in CHO FSHR cells+EC20 FSH (Assay A) 2500 Cho-FSHR-LUC-1-1-43 cells were plated per well in 5 al of phenol red free DMEM/F12+1% FBS. Cells were plated in 384 well, solid white low volume plates (Greiner 784075) by Multidrop. […] The plates were read on Envision using the cAMP HTRF—low volume 384 well protocol. The readout was the calculated fluorescence ratio (665 nm/620 nm). […]
Would you mind telling me the reported EC50 of each entry?

I have this compound here, COc1cc2c(cc1-c1nn(C)cc1C#N)-c1c(c(C(=O)N(C)C(C)(C)C)nn1-c1cc(F)cc(F)c1)CO2 [Compound 149] , and I need its recorded EC50.
< 10 nM

I have this compound here, COc1cc2c(cc1-c1ccccc1F)-c1c(c(C(=O)N(C)C(C)(C)C)nn1-c1ccsc1)CO2 [Compound 63] , and I need its recorded EC50.
10 to 100 nM

I have this compound here, COc1cc2c(cc1-c1cnn(CC(N)=O)c1)-c1c(c(C(=O)N(C)C(C)(C)C)nn1-c1cc(Cl)cc(Cl)c1)CO2 [Compound 2] , and I need its recorded EC50.
< 10 nM

I have this compound here, COc1cc2c(cc1-c1c(C)nn(CC(=O)N(C)C)c1C)-c1c(c(C(=O)N(C)C(C)(C)C)nn1-c1cc(Cl)cc(Cl)c1)CO2 [Compound 136] , and I need its recorded EC50.
< 10 nM

---

- Test target: FSHR (Homo sapiens)
- Sequence (P23945 18-695): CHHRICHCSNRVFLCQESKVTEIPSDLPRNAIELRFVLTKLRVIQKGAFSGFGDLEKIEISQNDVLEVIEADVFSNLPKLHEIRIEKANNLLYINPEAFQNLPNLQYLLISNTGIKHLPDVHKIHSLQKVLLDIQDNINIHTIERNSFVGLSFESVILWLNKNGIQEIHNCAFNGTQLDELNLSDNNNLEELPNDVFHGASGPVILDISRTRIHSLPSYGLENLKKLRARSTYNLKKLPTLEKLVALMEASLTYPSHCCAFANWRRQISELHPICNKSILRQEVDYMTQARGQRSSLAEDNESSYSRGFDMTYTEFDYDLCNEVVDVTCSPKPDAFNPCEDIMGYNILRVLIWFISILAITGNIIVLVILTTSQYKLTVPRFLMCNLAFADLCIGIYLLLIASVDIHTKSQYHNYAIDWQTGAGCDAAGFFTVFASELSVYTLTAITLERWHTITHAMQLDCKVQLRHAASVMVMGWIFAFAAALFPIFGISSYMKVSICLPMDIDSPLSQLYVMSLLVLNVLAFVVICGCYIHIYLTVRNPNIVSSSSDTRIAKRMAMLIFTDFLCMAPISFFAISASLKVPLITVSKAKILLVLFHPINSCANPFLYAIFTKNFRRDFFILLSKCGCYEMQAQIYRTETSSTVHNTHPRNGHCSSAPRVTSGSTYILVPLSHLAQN
- Method: EC50 of cyclic AMP production in CHO FSHR cells + EC20 FSH (Assay A)
- Experimental context: cyclic AMP production in CHO FSHR cells + EC20 FSH (0.265 pM), HTRF
pEC50: −log10 of the molar value.
Quantity name: pEC50

So what pEC50 did `COc1cc(Cl)cc(-n2nc(C(=O)N(C)C(C)(C)C)c3c2-c2cc(-c4cncc(C#N)c4)c(OC)cc2OC3)c1` get with FSHR (Homo sapiens)?
> 8.00

So what pEC50 did `COc1cc2c(cc1-c1cnn(CC(=O)O)c1)-c1c(c(C(=O)N(C)C(C)(C)C)nn1-c1cc(Cl)cc(Cl)c1)CO2` get with FSHR (Homo sapiens)?
7.00 to 8.00

So what pEC50 did `COc1cc(OC)cc(-n2nc(C(=O)N3CCOCC3(C)C)c3c2-c2cc(-c4cncc(C#N)c4)c(OC)cc2OC3)c1` get with FSHR (Homo sapiens)?
> 8.00

So what pEC50 did `COc1cc(OC)cc(-n2nc(C(=O)N(C)C(C)(C)C)c3c2-c2cc(-c4ccn(C)n4)c(OC)cc2OC3)c1` get with FSHR (Homo sapiens)?
7.00 to 8.00

So what pEC50 did `COc1cc2c(cc1-c1cnc(C)c(C(N)=O)c1)-c1c(c(C(=O)N(C)C(C)(C)C)nn1-c1cc(Cl)cc(Cl)c1)CO2` get with FSHR (Homo sapiens)?
> 8.00

So what pEC50 did `COc1cc(F)cc(-n2nc(C(=O)N3CCOCC3(C)C)c3c2-c2cc(-c4cnn(CCO)c4)c(OC)cc2OC3)c1` get with FSHR (Homo sapiens)?
> 8.00

So what pEC50 did `COc1cc2c(cc1-c1cc(C#N)ccn1)-c1c(c(C(=O)N(C)C(C)(C)C)nn1-c1cc(Cl)cc(Cl)c1)CO2` get with FSHR (Homo sapiens)?
7.00 to 8.00

So what pEC50 did `COc1cc2c(cc1-c1cncc(C(N)=O)c1)-c1c(c(C(=O)N(C)C(C)(C)C)nn1-c1ccsc1)CO2` get with FSHR (Homo sapiens)?
> 8.00

So what pEC50 did `COc1cc(OC)cc(-n2nc(C(=O)N(C)C(C)(C)C)c3c2-c2cc(-c4nn(C)cc4C(N)=O)c(OC)cc2OC3)c1` get with FSHR (Homo sapiens)?
< 6.30

So what pEC50 did `COc1cc2c(cc1-c1cnc(N)c(C)c1)-c1c(c(C(=O)N(C)C(C)(C)C)nn1-c1cc(Cl)cc(Cl)c1)CO2` get with FSHR (Homo sapiens)?
> 8.00

So what pEC50 did `COc1cc2c(cc1-c1cc(C(N)=O)ccn1)-c1c(c(C(=O)N(C)C(C)(C)C#N)nn1-c1cc(Cl)cc(Cl)c1)CO2` get with FSHR (Homo sapiens)?
> 8.00

---

- Test target: FSHR (Homo sapiens)
- Method: EC50 of cyclic AMP production in CHO FSHR cells + EC20 FSH (Assay A)
- Experimental context: cyclic AMP production in CHO FSHR cells + EC20 FSH (0.265 pM), HTRF
Would you mind telling me the reported EC50 of each entry?

I have this compound here, CNC(=O)Cn1cc(-c2cc3c(cc2OC)OCc2c(C(=O)N(C)C(C)(C)C)nn(-c4cc(Cl)cc(Cl)c4)c2-3)cn1 [Compound 91] , and I need its recorded EC50.
< 10 nM

I have this compound here, COc1cc2c(cc1-c1cnccc1C(N)=O)-c1c(c(C(=O)N(C)C(C)(C)C)nn1-c1cc(Cl)cc(Cl)c1)CO2 [Compound 153] , and I need its recorded EC50.
< 10 nM

I have this compound here, COc1cc2c(cc1-c1cncc(C#N)c1)-c1c(c(C(=O)N3CC[S+]([O-])CC3(C)C)nn1-c1cc(F)cc(F)c1)CO2 (stereo not shown) [Compound 49] , and I need its recorded EC50.
< 10 nM

I have this compound here, COc1cc2c(cc1-c1cncc(C(N)=O)c1)-c1c(c(C(=O)N3CCOCC3(C)C)nn1-c1cc(F)cc(F)c1)CO2 [Compound 164] , and I need its recorded EC50.
< 10 nM

I have this compound here, CCC1(COC)CCCN1C(=O)c1nn(-c2ccsc2)c2c1COc1cc(OC)c(-c3ccn(C)n3)cc1-2 (stereo not shown) [Compound 128] , and I need its recorded EC50.
10 to 100 nM

I have this compound here, COc1cc2c(cc1-c1cnn(CCO)c1)-c1c(c(C(=O)N3CCOCC3(C)C)nn1-c1cc(F)cc(Cl)c1)CO2 [Compound 78] , and I need its recorded EC50.
< 10 nM

I have this compound here, COc1cc2c(cc1-c1cncc(C(N)=O)c1)-c1c(c(C(=O)N(C)C(C)(C)C)nn1-c1cc(F)cc(F)c1)CO2 [Compound 161] , and I need its recorded EC50.
< 10 nM

---

Would you mind telling me the reported EC50 of each entry?
- Test target: FSHR (Homo sapiens)
- Method: EC50 of cyclic AMP production in CHO FSHR cells + EC20 FSH (Assay A)
- Experimental context: cyclic AMP production in CHO FSHR cells + EC20 FSH (0.265 pM), HTRF

So what EC50 did CNC(=O)c1cc(-c2cc3c(cc2OC)OCc2c(C(=O)N(C)C(C)(C)C)nn(-c4cc(F)cc(F)c4)c2-3)cnc1N [Compound 100] get with FSHR (Homo sapiens)?
< 10 nM

So what EC50 did COc1cc2c(cc1-c1cncc(C#N)c1)-c1c(c(C(=O)N(C)C(C)(C)C#N)nn1-c1cc(F)cc(F)c1)CO2 [Compound 105] get with FSHR (Homo sapiens)?
< 10 nM

So what EC50 did COc1cc2c(cc1-c1nccc(C(N)=O)n1)-c1c(c(C(=O)N(C)C(C)(C)C)nn1-c1cc(Cl)cc(Cl)c1)CO2 [Compound 111] get with FSHR (Homo sapiens)?
10 to 100 nM

So what EC50 did COc1cc2c(cc1-c1cc(C)cnc1OC)-c1c(c(C(=O)N(C)C(C)(C)C)nn1-c1cc(Cl)cc(Cl)c1)CO2 [Compound 189] get with FSHR (Homo sapiens)?
10 to 100 nM

So what EC50 did COc1cc2c(cc1-c1cncc(C(N)=O)c1)-c1c(c(C(=O)N(C)C(C)(C)C)nn1-c1cc(C)cc(F)c1)CO2 [Compound 173] get with FSHR (Homo sapiens)?
< 10 nM

So what EC50 did COc1cc2c(cc1-c1cc(C(N)=O)ncc1F)-c1c(c(C(=O)N(C)C(C)(C)C)nn1-c1cc(Cl)cc(Cl)c1)CO2 [Compound 68] get with FSHR (Homo sapiens)?
< 10 nM

So what EC50 did COc1cc(OC)cc(-n2nc(C(=O)N3CC[S+]([O-])CC3(C)C)c3c2-c2cc(-c4cncc(C)c4)c(OC)cc2OC3)c1 (centres unmarked) [Compound 45] get with FSHR (Homo sapiens)?
< 10 nM

So what EC50 did COc1cc(OC)cc(-n2nc(C(=O)N3CC[S+]([O-])CC3(C)C)c3c2-c2cc(-c4ccccn4)c(OC)cc2OC3)c1 (centres unmarked) [Compound 41] get with FSHR (Homo sapiens)?
10 to 100 nM

So what EC50 did COC(=O)[C@H]1C[C@@H]1c1cc2c(cc1OC)OCc1c(C(=O)N(C)C(C)(C)C)nn(-c3cc(F)cc(F)c3)c1-2 (racemic) [Compound 206] get with FSHR (Homo sapiens)?
< 10 nM

So what EC50 did COc1cc2c(cc1-c1ccccn1)-c1c(c(C(=O)N3CCC(O)CC3(C)C)nn1-c1cc(Cl)cc(Cl)c1)CO2 (centres unmarked) [Compound 102] get with FSHR (Homo sapiens)?
< 10 nM

So what EC50 did COc1cc(OC)cc(-n2nc(C(=O)N(C)C(C)(C)CCO)c3c2-c2cc(-c4cccnc4F)c(OC)cc2OC3)c1 [Compound 135] get with FSHR (Homo sapiens)?
< 10 nM

So what EC50 did COc1cc2c(cc1-c1nn(C)cc1Cl)-c1c(c(C(=O)N3CCOCC3(C)C)nn1-c1cc(F)cc(F)c1)CO2 [Compound 151] get with FSHR (Homo sapiens)?
< 10 nM

So what EC50 did COc1cc2c(cc1-c1cccc(F)c1C#N)-c1c(c(C(=O)N(C)C(C)(C)C)nn1-c1cc(Cl)cc(Cl)c1)CO2 [Compound 25] get with FSHR (Homo sapiens)?
< 10 nM

So what EC50 did COc1cc(F)cc(-n2nc(C(=O)N(C)C(C)(C)C)c3c2-c2cc(-c4ccn(C)n4)c(OC)cc2OC3)c1 [Compound 52] get with FSHR (Homo sapiens)?
10 to 100 nM

So what EC50 did COc1cc2c(cc1-c1cccc(O)c1)-c1c(c(C(=O)N(C)C(C)(C)C)nn1-c1cc(Cl)cc(Cl)c1)CO2 [Compound 22] get with FSHR (Homo sapiens)?
< 10 nM

So what EC50 did COc1cc(OC)cc(-n2nc(C(=O)N(C)C(C)(C)C)c3c2-c2cc(-c4cc[nH]c4)c(OC)cc2OC3)c1 [Compound 38] get with FSHR (Homo sapiens)?
10 to 100 nM

So what EC50 did COc1cc2c(cc1-c1cc(C(N)=O)ncc1F)-c1c(c(C(=O)N(C)C(C)(C)C#N)nn1-c1cc(F)cc(F)c1)CO2 [Compound 109] get with FSHR (Homo sapiens)?
< 10 nM

So what EC50 did COc1cc(Cl)cc(-n2nc(C(=O)N(C)C(C)(C)C)c3c2-c2cc(-c4cncc(C(N)=O)c4)c(OC)cc2OC3)c1 [Compound 156] get with FSHR (Homo sapiens)?
< 10 nM

So what EC50 did COc1cc2c(cc1-c1cc(Cl)cc(C(N)=O)c1)-c1c(c(C(=O)N(C)C(C)(C)C)nn1-c1cc(F)cc(F)c1)CO2 [Compound 165] get with FSHR (Homo sapiens)?
< 10 nM

So what EC50 did COc1cc2c(cc1-c1cc(C)cnc1F)-c1c(c(C(=O)N(C)C(C)(C)C)nn1-c1ccsc1)CO2 [Compound 62] get with FSHR (Homo sapiens)?
< 10 nM

So what EC50 did COc1cc(OC)cc(-n2nc(C(=O)N(C)C(C)(C)CCO)c3c2-c2cc(-c4ccn(C)n4)c(OC)cc2OC3)c1 [Compound 134] get with FSHR (Homo sapiens)?
10 to 100 nM

So what EC50 did COc1cc(Cl)cc(-n2nc(C(=O)N(C)C(C)(C)C)c3c2-c2cc(-c4ccn(C)n4)c(OC)cc2OC3)c1 [Compound 32] get with FSHR (Homo sapiens)?
10 to 100 nM

So what EC50 did COc1cc2c(cc1-c1cc(C(N)=O)c[n+]([O-])c1)-c1c(c(C(=O)N3CCOCC3(C)C)nn1-c1cc(Cl)cc(Cl)c1)CO2 [Compound 174] get with FSHR (Homo sapiens)?
< 10 nM

So what EC50 did COc1cc2c(cc1-c1cncc(C(N)=O)c1)-c1c(c(C(=O)N3CCOCC3(C)C)nn1-c1cc(Cl)cc(Cl)c1)CO2 [Compound 169] get with FSHR (Homo sapiens)?
< 10 nM

So what EC50 did COc1cc(OC)cc(-n2nc(C(=O)N3CCOCC3(C)C)c3c2-c2cc(-c4cccnc4F)c(OC)cc2OC3)c1 [Compound 42] get with FSHR (Homo sapiens)?
< 10 nM

So what EC50 did COc1cc2c(cc1-c1cncc(NC(N)=O)c1)-c1c(c(C(=O)N(C)C(C)(C)C)nn1-c1cc(Cl)cc(Cl)c1)CO2 [Compound 183] get with FSHR (Homo sapiens)?
< 10 nM
